Where do these numbers come from? They come from patent US20210403591A1.

# Test Target: T1, recombinant mouse TfR-1, His-tagged (Sino Biological 50741-M07H) (mouse, UniProt Q62351 89-763)
# T1 construct: bought; His-tagged; also called mTfR1; mTfR-1
# T1 sequence (Q62351 89-763 limits assumed, stated change not applied): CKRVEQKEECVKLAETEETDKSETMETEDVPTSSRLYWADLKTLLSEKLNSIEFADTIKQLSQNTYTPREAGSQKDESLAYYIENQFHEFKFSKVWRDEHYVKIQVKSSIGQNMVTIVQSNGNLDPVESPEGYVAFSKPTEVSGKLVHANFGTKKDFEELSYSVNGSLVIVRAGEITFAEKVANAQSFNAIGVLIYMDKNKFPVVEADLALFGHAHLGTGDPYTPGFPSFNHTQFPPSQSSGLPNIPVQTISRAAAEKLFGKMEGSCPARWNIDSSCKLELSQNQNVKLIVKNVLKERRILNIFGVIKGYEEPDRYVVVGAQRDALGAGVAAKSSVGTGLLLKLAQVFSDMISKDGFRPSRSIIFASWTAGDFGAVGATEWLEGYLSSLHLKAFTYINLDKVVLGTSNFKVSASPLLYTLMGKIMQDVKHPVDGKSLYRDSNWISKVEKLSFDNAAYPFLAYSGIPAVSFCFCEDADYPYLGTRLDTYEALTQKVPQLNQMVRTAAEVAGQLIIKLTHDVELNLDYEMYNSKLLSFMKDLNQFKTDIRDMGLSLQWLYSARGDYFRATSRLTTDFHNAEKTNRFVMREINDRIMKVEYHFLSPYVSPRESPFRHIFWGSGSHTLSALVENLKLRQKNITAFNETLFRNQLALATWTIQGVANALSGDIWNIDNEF
# Protocol Notes: SPR, His-captured TfR1
Result Type: koff (s⁻¹)
The reply should be a number in s⁻¹, with the unit left off.

Clone C variant 20 VNAR-hFc (Fc fusion, not shown: a dimerising Fc or GST) ARVDQTPQTITKETGESLTINCVLRDSNCALSSTYWYRKKSGSTNEENISKGGRYVETVNSGSKSFSLRINDLTVEDSGTYRCNVVQYPSHNNYFWCDVYGDGTAVTVN ... 0.000103

# next binder below
Request: Need koff of Clone C variant 13 VNAR-hFc (Fc fusion, not shown: a dimerising Fc or GST, also called Clone C v13; Clone C var; 13) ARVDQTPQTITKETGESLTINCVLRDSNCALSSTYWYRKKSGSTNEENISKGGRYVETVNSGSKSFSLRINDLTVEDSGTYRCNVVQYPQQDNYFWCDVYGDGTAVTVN , thanks.
Response: 4.09e-05
